Recorded measurements of EC50, one per entry
Biological target: T1, hRim
T1 chimeric human/tetraodon Sortilin extracellular region, BAP tag: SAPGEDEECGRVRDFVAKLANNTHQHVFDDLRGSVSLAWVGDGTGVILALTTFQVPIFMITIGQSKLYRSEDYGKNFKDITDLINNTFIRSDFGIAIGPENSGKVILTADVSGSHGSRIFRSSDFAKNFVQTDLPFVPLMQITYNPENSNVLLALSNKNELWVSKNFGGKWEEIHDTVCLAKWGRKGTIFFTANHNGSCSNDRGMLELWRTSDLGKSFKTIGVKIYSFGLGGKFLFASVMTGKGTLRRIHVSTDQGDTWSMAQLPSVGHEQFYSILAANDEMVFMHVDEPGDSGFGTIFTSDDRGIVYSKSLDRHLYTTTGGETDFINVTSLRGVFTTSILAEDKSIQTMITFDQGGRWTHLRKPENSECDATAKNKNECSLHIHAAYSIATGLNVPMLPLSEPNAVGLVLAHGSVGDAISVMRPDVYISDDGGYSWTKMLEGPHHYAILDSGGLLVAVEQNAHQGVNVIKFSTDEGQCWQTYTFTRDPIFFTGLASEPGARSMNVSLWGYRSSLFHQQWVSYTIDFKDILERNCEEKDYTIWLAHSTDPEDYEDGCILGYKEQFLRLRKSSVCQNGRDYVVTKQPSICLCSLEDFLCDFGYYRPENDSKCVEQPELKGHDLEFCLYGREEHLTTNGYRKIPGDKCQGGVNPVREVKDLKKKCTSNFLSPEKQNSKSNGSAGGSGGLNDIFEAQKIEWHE
Assay: BLI (Octet384RED)
Write the value in ng/mL as a bare number.

binder="Antibody 6003-886 (antibody, human IgG1, V domains shown) VH: QVQLVQSGAEVKKPGASVKVSCKASGYTFTKYGISWVRQAPGQGLEWMGWISAYNGNTNYAQKLQDRVTMTTDTFTSTAYMELRSLRSDDTAVYFCARDGPLTGDFTFYGMDVWGQGTTVTVSS VL: EIVLTQSPATLSLSPGERATLSCRASQSVSSYLAWYQQKPGQAPRLLIYDASNRATGIPARFSGSGSGTDFTLTISSLEPEDFAVYYCQQRSNWPPFTFGPGTKVDIK" quantity_name=EC50 assay_value=4.42
binder="Antibody 6003-799 (antibody, human IgG1, V domains shown) VH: QVQLVESGGGVVQPGRSLRLSCAASGFTFSSYGMHWVRQAPGKGLEWVTVISYDGSNKYYADSVKGRFTISRDNSKNTLYLQMNSLRAEDTAVYYCAKLTGDAFDIWGQGTMVTVSS VL: EIVLTQSPATLSLSPGERATLSCRASQSVSSYLVWYQQKPGQAPRLLIYHASNRATGIPARFSGSGSGTDFTLTISSLEPEDFAVYYCQQRSNWPRITFGQGTRLEIK" quantity_name=EC50 assay_value=5.02

Now examine the next entry.
Task item: What value of EC50 has been recorded for this entry: IgG1-6003-972 (antibody, V domains shown, also called Antibody 6003-972) VH: QVQLVESGGGVVQPGRSLRLSCAASGFTFSDYAMHWVRRAPGKGLEWVVVISYDGSNKYYADSVKGRFTISRDNSKNTLYLQMNSLRAEDTAVYYCARDPSGGWYFDLWGRGTLVTVSS VL: EIVLTQSPATLSLSPGERATLSCRASQSVSSYLAWYQQKPGQAPRLLIYDASNRATGIPARFSGSGSGTDFTLTISSLEPEDFALYYCQQRSHWPRTFGQGTKVEIK
Reply: 3.08
